- setup_conditions: in MIBK, 298.15 K

{"compound": "NC(N)=C([N+](=O)[O-])[N+](=O)[O-]", "solubility (mole fraction)": 0.00327}

* * *

- setup_conditions: in 2-butanone, 298.15 K

{"compound": "NC(N)=C([N+](=O)[O-])[N+](=O)[O-]", "solubility (mole fraction)": 0.0056}

* * *

- setup_conditions: in MIBK, 333.15 K
measured_attribute: solubility (mole fraction)

{"compound": "NC(N)=C([N+](=O)[O-])[N+](=O)[O-]", "measured_attribute": "solubility (mole fraction)", "measured": 0.006}

* * *

- setup_conditions: in MIBK, 313.15 K

{"compound": "NC(N)=C([N+](=O)[O-])[N+](=O)[O-]", "solubility (mole fraction)": 0.00428}
